# Test system: Plasmodium berghei
# assay.summary: Screen against P. berghei liver stage (PbLuc), transformed with Luciferase, at 2uM
# Assay type: functional, HepG2
# setup.conditions: tested at 2 uM
Hit rate of the full screen: of about 68,000 compounds, about 2,700 (4%) showed an effect of 50% or more. The sample holds strong results, similar compounds and a random draw of the others, so the mix is not that of the screen.
We use 50% as the dividing line for INHIBITION: on or above the line is True, below is False.

c1cc(-c2c[nH]c([C@@H]3COCCN3C3CCOCC3)n2)ccn1: False
CC(C)N1CCOC[C@H]1c1nc(-c2ccncc2)c[nH]1: True

Hi, just wondering whether `CN1CCOC[C@H]1c1nc(-c2ccncc2)c[nH]1` shows INHIBITION of 50% or higher.
False

Queued: `COCCN(C)C(=O)Cn1cccc(OC)c1=O`
False

Queued: `COc1cccn(CC(=O)N(C)CCC2CCOCC2)c1=O`
True

###

# Tested on: Plasmodium berghei
# assay.summary: Screen against P. berghei liver stage (PbLuc), transformed with Luciferase, at 2uM
# Type: functional, HepG2
# setup.conditions: tested at 2 uM
Hit rate of the full screen: of about 68,000 compounds, about 2,700 (4%) showed an effect of 50% or more. For the sample, strong results were picked, then their nearest neighbours and some compounds at random.
experimental.endpoint: INHIBITION (%)
Response body: numeric value in %, unit text excluded.

# count of solved cases: 6
COc1c(C2CCCN2C(=O)c2sc(C)nc2C)c(C)nn1C (centres undefined): -37.68
O=C1CC(N2CCN(c3ccccc3O)CC2)C(=O)N1Cc1cccs1 (centres undefined): 19.62
C[C@H](C(=O)N1Cc2ccccc2CC2(CCCN2C)C1)c1ccccc1 (some centres undefined): 29.56
CC(NC(=O)Cc1cccs1)(C(N)=O)c1cccc(Cl)c1 (centres undefined): -18.59
O=C(C1CCCCC1)N1CC2(CCNCC2)C1: 27.1
CCn1nc(C)c(CN(CCOC)C(=O)c2ccccc2N(C)C)c1C: 15.74

Consider the molecule `CCc1cc(NCCC(F)(F)F)nc(N2CCOCC2)n1` and give its measured INHIBITION.
35.15

Queued: `COCCCN1C(=O)CC[C@H]2CN(Cc3ncc[nH]3)CC[C@H]21`
50.59

###

# Tested on: Plasmodium berghei
# assay.summary: Screen against P. berghei liver stage (PbLuc), transformed with Luciferase, at 2uM
# Assay type: functional, HepG2
# setup.conditions: tested at 2 uM
In all, about 68,000 compounds went through this assay and about 2,700 (4%) showed an effect of 50% or more. Shown is part of a subset that was picked to be rich in strong results.
We label by threshold. Values of INHIBITION strictly beneath 10% are 1.0. Values of 10% and up are 0.0.

Consider the following illustrative entries.
CS(=O)(=O)NC(=O)c1ccn(-c2ccccc2Cl)n1: 1.0
CCn1cnnc1CNC(=O)N1CCN(c2cccs2)CC1: 0.0
CN(Cc1cncs1)C1CCN(C(=O)OC(C)(C)C)CC1: 0.0
CCOC(=O)N(C)C1CCN(Cc2cnc3ccccn23)CC1: 1.0
COCC(O)CN1CCC(NC(=O)c2cccc(C)c2)CC1 (centres undefined): 1.0
COCCC1(C(=O)O)CCCN(C(=O)c2cc(C)oc2C)C1 (centres undefined): 1.0
Nc1nccc(C2CCN(CCO)C2)n1 (centres undefined): 0.0
Cc1ccc(C(CNCc2ccncc2)N2CCOCC2)s1 (centres undefined): 1.0

API: the following record is the query input.
Find out if reported INHIBITION for `Cc1nc(C)c(CN(C)C2CCN(C(=O)OC(C)(C)C)CC2)s1` is less than 10%
0.0
